target: human adenosine A2A receptor (Homo sapiens); construct: expressed in transfected cells; host or cells: HEK293 cells infected with BacMam; assay: Inhibition binding assay, human adenosine A2A receptor membranes, [3H]ZM241385; conditions: 1 nM [3H]ZM241385, HEK293-hA2A membranes, 25° C., 1 h; IC50 converted to Ki with Cheng-Prusoff; read-out: A2A pKi (converted)
Sequence (P29274 whole entry): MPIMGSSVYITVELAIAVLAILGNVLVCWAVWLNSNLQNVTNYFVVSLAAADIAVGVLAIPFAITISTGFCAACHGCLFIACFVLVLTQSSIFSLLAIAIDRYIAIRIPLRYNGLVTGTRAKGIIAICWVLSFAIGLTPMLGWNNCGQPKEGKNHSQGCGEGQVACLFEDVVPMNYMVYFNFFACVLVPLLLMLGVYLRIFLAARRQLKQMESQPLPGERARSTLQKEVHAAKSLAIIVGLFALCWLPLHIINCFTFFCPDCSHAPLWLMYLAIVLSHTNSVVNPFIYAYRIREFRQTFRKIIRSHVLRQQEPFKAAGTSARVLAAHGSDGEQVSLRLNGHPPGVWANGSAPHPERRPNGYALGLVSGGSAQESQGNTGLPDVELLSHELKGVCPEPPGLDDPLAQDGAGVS
property: Ki (nM)

Past entries and their recorded results:
Cc1cc(-c2c(-c3ccccc3)nc(N)n3c(=O)n(CC45C6C7C4C4C5C6C74F)nc23)cc(CO)n1 (stereo not drawn)	7.94
Cc1cc(-c2c(-c3ccccc3)nc(N)n3c(=O)n(C[C@H]4COCCN4C(=O)OC(C)(C)C)nc23)cc(C)n1	100
CCC1(C)CC1Cn1nc2c(-c3cc(C)nc(C)c3)c(-c3ccccc3)nc(N)n2c1=O (stereo not drawn)	0.631
CCC(c1ccc(F)cn1)n1nc2c(-c3cc(C)nc(C)c3)c(-c3ccccc3)nc(N)n2c1=O (single isomer, unassigned) [1-38 iso-1]	63.1
Cc1cc(-c2c(-c3ccc(F)cc3)nc(N)n3c(=O)n(Cc4cccnn4)nc23)cc(CO)n1	12.6

[I] CC#Cc1nc(N)n2c(=O)n(CCC(F)(F)F)nc2c1-c1cc(C)nc(C)c1
[II] Cc1cc(-c2c(-c3ccccc3)nc(N)n3c(=O)n(Cc4ncc(F)cn4)nc23)cc(C)n1
[III] Cc1cc(-c2c(-c3ccccc3)nc(N)n3c(=O)n(Cc4ccc(F)cn4)nc23)cc(Cl)n1
[IV] COc1cc(-c2c(-c3ccc(F)cc3)nc(N)n3c(=O)n(CCC(F)(F)F)nc23)cc(CO)n1
[Q] Sort the compounds on Ki; start with the lowest figure. Put the labels in the requested order and write them down.
[A] III, IV, II, I
(III: 0.126 nM, IV: 1.58 nM, II: 15.8 nM, I: 31.6 nM)

[A] Cc1cc(-c2c(-c3ccccc3)nc(N)n3c(=O)n(Cc4ccc(C#N)cn4)nc23)cc(CO)n1
[B] Cc1cc(-c2c(-c3ccccc3)nc(N)n3c(=O)n(C[C@H]4CNCCO4)nc23)cc(C)n1
[Q] Recorded Ki values differ for A and B ; which one is higher? Give the label of your selection.
[A] A

[A] Cc1cc(-c2c(-c3ccccc3)nc(N)n3c(=O)n(CCC(F)(F)F)nc23)cc(Cl)n1
[B] Cc1cc(-c2c(-c3ccccc3)nc(N)n3c(=O)n(CCC4CCN(CCC(=O)O)CC4)nc23)cc(C)n1
[Q] Recorded Ki values differ for A and B ; which one is higher? Give the label of your selection.
[A] B
(B: 126 nM, A: 0.794 nM)

[I] Cc1cc(-c2c(-c3ccc(F)cc3)nc(N)n3c(=O)n(Cc4ccc(F)cn4)nc23)cc(CO)n1
[II] Cc1cc(-c2c(-c3ccccc3)nc(N)n3c(=O)n(CCNC4CCCC(C(=O)NC5CC5)C4)nc23)cc(C)n1 (stereo not drawn)
[Q] Form: Entry with minimum Ki (choose one): I / II Give the label of your selection.
[A] I
(I: 1.58 nM, II: 200 nM)

====

target: human adenosine A2A receptor (Homo sapiens); construct: expressed in transfected cells; host or cells: HEK293 cells infected with BacMam; assay: Inhibition binding assay, human adenosine A2A receptor membranes, [3H]ZM241385; conditions: 1 nM [3H]ZM241385, HEK293-hA2A membranes, 25° C., 1 h; IC50 converted to Ki with Cheng-Prusoff; read-out: A2A pKi (converted)
property: Ki (nM)

CCCn1nc2c(-c3cc(C)nc(C)c3)c(-c3ccccc3)nc(N)n2c1=O	3.98
CCNC(=O)OCCn1nc2c(-c3cc(C)nc(C)c3)c(-c3ccccc3)nc(N)n2c1=O	20
COC(=O)C1(Cn2nc3c(-c4cc(C)nc(C)c4)c(-c4ccccc4)nc(N)n3c2=O)CCCC1	0.501
Cc1cc(-c2c(-c3ccccc3)nc(N)n3c(=O)n(C4CCCN(C(=O)OC(C)(C)C)C4)nc23)cc(C)n1 (centres unmarked)	6.31
CCOc1nc(N)n2c(=O)n(CCC(F)(F)F)nc2c1-c1cc(C)nc(C)c1	158

[1] Cc1cc(-c2c(-c3ccccc3)nc(N)n3c(=O)n(CC(=O)N(C)C)nc23)cc(C)n1
[2] CCN(C)CCn1nc2c(-c3cc(C)nc(C)c3)c(-c3ccccc3)nc(N)n2c1=O
[Q] Form: Entry with minimum Ki (choose one): 1 / 2 Give the label of your selection.
[A] 2
(2: 6.31 nM, 1: 10 nM)

Measured values drawn from patent US12528815B2 for this set.
